Study System: RORγ (Homo sapiens)
Construct: expressed in transfected cells; host or cells: HEK 293 cells, transiently transfected
Test Name: Reporter Gene Assay (RGA): nuclear receptor transactivation assay, inhibition of RORγ transactivation of a luciferase reporter in transiently transfected HEK 293 cells
Type: cell-based
Condition Set: read-out: RGA IC50
Value Type: pIC50
The meaning of pIC50 here: minus log10 of the concentration in molar units.

Challenge: Form field: pIC50 recorded for CCS(=O)(=O)c1ccc(CNc2nc3cnc(-c4c(OC)ncnc4C4CC4)nc3n(C3CC3)c2=O)cc1 with RORγ (Homo sapiens) (enter value)
Response given: 5.59

Challenge: And what about the compound CCS(=O)(=O)c1sc(CNc2nc3cnc(-c4c(C)ncnc4C4CC4)nc3n([C@@H](C)C3CC3)c2=O)nc1C ?
Response given: 6.97

Challenge: And what about the compound CCS(=O)(=O)c1cnc(CNc2nc3cnc(-c4c(C)ncnc4C4CC4)nc3n([C@@H](C)C(F)(F)F)c2=O)nc1 ?
Response given: 6.50

Challenge: And what about the compound CCC(C)n1c(=O)c(NCc2ccc(S(C)(=O)=O)cc2)nc2cnc(-c3c(OC)ncnc3C3CC3)nc21 (stereo not shown) ?
Response given: 6.38

###

Task for the reader: assign each of the following compounds its reported IC50.
Study System: RORγ (Homo sapiens, UniProt P51449)
Construct: expressed in transfected cells; host or cells: HEK 293 cells, transiently transfected
Sequence (P51449 269-508 limits assumed): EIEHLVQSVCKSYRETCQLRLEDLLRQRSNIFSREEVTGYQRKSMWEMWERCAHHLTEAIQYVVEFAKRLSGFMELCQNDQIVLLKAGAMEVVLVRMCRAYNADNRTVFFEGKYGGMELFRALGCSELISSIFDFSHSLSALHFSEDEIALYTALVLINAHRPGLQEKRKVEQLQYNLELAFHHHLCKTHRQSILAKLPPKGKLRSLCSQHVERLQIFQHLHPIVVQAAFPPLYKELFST
Test Name: Reporter Gene Assay (RGA): nuclear receptor transactivation assay, inhibition of RORγ transactivation of a luciferase reporter in transiently transfected HEK 293 cells
Type: cell-based
Condition Set: read-out: RGA IC50
Numeric answer only, unit nM assumed.

Challenge: What measured IC50 goes with CCS(=O)(=O)c1ccc(CNc2nc3cnc(-c4c(OC)ncnc4C4CC4)nc3n(C3(C)CC3(F)F)c2=O)nc1 (stereo not shown) ?
Response given: 880

Challenge: And what about the compound COc1ncnc(C2CC2)c1-c1ncc2nc(NCc3ccc(S(N)(=O)=O)cc3)c(=O)n(C(C)C)c2n1 ?
Response given: 255

Challenge: And what about the compound CCS(=O)(=O)c1ccc(CNc2nc3cnc(-c4c(C)ncnc4C4CC4)nc3n(CC(C)(C)F)c2=O)nc1 ?
Response given: 1600

Challenge: And what about the compound CO[C@H]1CCC[C@@H]1n1c(=O)c(NCc2ccc(S(C)(=O)=O)cc2)nc2cnc(-c3c(C)ncnc3C3CC3)nc21 ?
Response given: 530

###

Task for the reader: assign each of the following compounds its reported pIC50.
Study System: RORγ (Homo sapiens, UniProt P51449)
Construct: expressed in transfected cells; host or cells: HEK 293 cells, transiently transfected
Test Name: Reporter Gene Assay (RGA): nuclear receptor transactivation assay, inhibition of RORγ transactivation of a luciferase reporter in transiently transfected HEK 293 cells
Format: cell-based
Condition Set: read-out: RGA IC50
The meaning of pIC50 here: minus log10 of the concentration in molar units.

Challenge: Form field: pIC50 recorded for CCS(=O)(=O)c1ccc(CNc2nc3cnc(-c4c(C5CC5)ncnc4C4CC4)nc3n(C3CC3)c2=O)cn1 with RORγ (Homo sapiens, UniProt P51449) (enter value)
Response given: 5.12

Challenge: And what about the compound CC(=O)N1CCC(CNc2nc3cnc(-c4c(C)ncnc4C4CC4)nc3n([C@@H](C)C3CC3)c2=O)CC1 ?
Response given: 5.80

Challenge: And what about the compound CCS(=O)(=O)c1ccc(CNc2nc3cnc(-c4c(C5CC5)ncnc4C4CC4)nc3n(C3CCCC3)c2=O)nc1 ?
Response given: 6.52

Challenge: And what about the compound Cc1ncnc(C2CC2)c1-c1ncc2nc(NCc3ccc(S(C)(=O)=O)cn3)c(=O)n(C3CCC3)c2n1 ?
Response given: 6.40
